Provenance of the data: patent US9464064B2

target: HCV NS3 helicase NS3h_1b(con1) (Hepatitis C virus genotype 1b); construct: truncated C-terminally His-tagged NS3 proteins lacking the N-terminal protease, called NS3h; His-tag (C); made in house; assay: MBHA screen of NCI mechanistic set library at 20 μM (percent inhibition, compound interference); type: biochemical; conditions: compounds at 20 μM; assay interference calculated with Equation 2 (fluorescence vs DMSO-only controls before ATP)
So I've got a bunch of molecules here, and I need their Int.* (Ratio) (Interference) values.
State the answer as a number, implicitly in Ratio.

Reported Int.* (Ratio) (Interference) (HCV NS3 helicase NS3h_1b(con1) (Hepatitis C virus genotype 1b)) for entry O=C(CC(O)(C(F)(F)F)C(F)(F)Cl)CC(O)(C(F)(F)F)C(F)(F)Cl (centres unmarked) [Compound 659174] is 0.92

Reported Int.* (Ratio) (Interference) (HCV NS3 helicase NS3h_1b(con1) (Hepatitis C virus genotype 1b)) for entry CC(=O)N(C)c1ccc(Nc2cc(C)[nH]c3ccc4ncnc4c23)cc1.Cl [Compound 305884] is 1.04

Reported Int.* (Ratio) (Interference) (HCV NS3 helicase NS3h_1b(con1) (Hepatitis C virus genotype 1b)) for entry CC(=O)NCCCCCCNC(C)=O [Compound 95580] is 0.93

Reported Int.* (Ratio) (Interference) (HCV NS3 helicase NS3h_1b(con1) (Hepatitis C virus genotype 1b)) for entry COc1cc(OC)c2c(C)cc(=O)oc2c1 [Compound 688795] is 1.02

Reported Int.* (Ratio) (Interference) (HCV NS3 helicase NS3h_1b(con1) (Hepatitis C virus genotype 1b)) for entry Cc1ccccc1NC(=O)C(=O)C(C(=O)c1ccccc1F)C1OC(=O)c2ccccc21 (centres unmarked) [Compound 641228] is 0.92

====

So I've got a bunch of molecules here, and I need their Int.* (Ratio) (Interference) values.
target: HCV NS3 helicase NS3h_1b(con1) (Hepatitis C virus genotype 1b, UniProt Q9WMX2); construct: truncated C-terminally His-tagged NS3 proteins lacking the N-terminal protease, called NS3h; His-tag (C); made in house; assay: MBHA screen of NCI mechanistic set library at 20 μM (percent inhibition, compound interference); assay type: biochemical; details: compounds at 20 μM; assay interference calculated with Equation 2 (fluorescence vs DMSO-only controls before ATP)
Sequence (Q9WMX2 1192-1657): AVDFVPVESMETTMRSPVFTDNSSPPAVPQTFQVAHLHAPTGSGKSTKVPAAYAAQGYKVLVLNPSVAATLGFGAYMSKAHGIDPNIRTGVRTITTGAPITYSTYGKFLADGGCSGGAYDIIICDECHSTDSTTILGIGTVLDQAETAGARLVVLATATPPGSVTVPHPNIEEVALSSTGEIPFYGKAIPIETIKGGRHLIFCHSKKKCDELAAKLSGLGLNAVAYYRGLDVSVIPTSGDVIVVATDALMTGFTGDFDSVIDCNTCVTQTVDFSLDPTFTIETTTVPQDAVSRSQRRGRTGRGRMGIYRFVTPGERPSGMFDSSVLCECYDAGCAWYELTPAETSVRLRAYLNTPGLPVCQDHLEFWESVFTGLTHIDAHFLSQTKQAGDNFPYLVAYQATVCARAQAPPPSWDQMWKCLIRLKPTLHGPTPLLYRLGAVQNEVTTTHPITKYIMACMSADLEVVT
State the answer as a number, implicitly in Ratio.

The molecule listed as Nc1nc(SCc2ccccc2Cl)c2ncn(C3OC(CO)C(O)C3O)c2n1 (stereo not shown) [Compound 40666] shows Int.* (Ratio) (Interference) equal to 1.09

The molecule listed as c1coc(CNc2ncnc3[nH]ncc23)c1 [Compound 1620] shows Int.* (Ratio) (Interference) equal to 1.06

The molecule listed as CN(C)CC1CCC/C(=C\c2ccc(OC(=O)/C=C/c3ccccc3)cc2)C1=O.Cl (stereo not shown) [Compound 697443] shows Int.* (Ratio) (Interference) equal to 1.01

The molecule listed as CNC(=S)N/N=C/c1ccc([N+](=O)[O-])s1 [Compound 169543] shows Int.* (Ratio) (Interference) equal to 1.02

The molecule listed as O=C1Cc2c(-c3ccccc3)cc(-c3cccc(Cl)c3)nc2-c2ccccc2N1 [Compound 684480] shows Int.* (Ratio) (Interference) equal to 1.04

The molecule listed as COC(=O)C[S+]([O-])c1ccccc1 (stereo not shown) [Compound 620050] shows Int.* (Ratio) (Interference) equal to 0.96

The molecule listed as COC1C(O)=C2C(=O)OC(C)(O)/C=C/C=C\C=C/C=C/C(c3ccccc3)NC(=O)/C=C/C=C/C=C/C=C/C2(C)C1O (stereo not shown) [Compound 236657] shows Int.* (Ratio) (Interference) equal to 0.91

The molecule listed as Nc1nc(=S)c2ncn([C@@H]3C[C@H](O)[C@@H](CO)O3)c2[nH]1 [Compound 71851] shows Int.* (Ratio) (Interference) equal to 0.94

The molecule listed as COc1ccc(-c2cc(=O)c3c(O)cc(O)cc3o2)cc1OC [Compound 128305] shows Int.* (Ratio) (Interference) equal to 0.99

The molecule listed as CNc1nc(N(C)C)nc(N(C)C)n1 [Compound 118742] shows Int.* (Ratio) (Interference) equal to 1.01

The molecule listed as CC1=CC(C)(C)N=C2SC(c3ccc(N)cc3)=NN12 [Compound 640624] shows Int.* (Ratio) (Interference) equal to 1.11

The molecule listed as Cc1ccc([S+](c2ccc(C)cc2)c2ccc(C)cc2)cc1 [Compound 157930] shows Int.* (Ratio) (Interference) equal to 0.86

The molecule listed as CC(=O)c1ccc(Oc2ccc(/C(C)=N/N=C(N)N)cc2)cc1.O=[N+]([O-])O [Compound 97911] shows Int.* (Ratio) (Interference) equal to 0.95

The molecule listed as Cl.NC(N)=N/N=C(\c1ccc(Cl)cc1)C1CC1 [Compound 74420] shows Int.* (Ratio) (Interference) equal to 1.10

The molecule listed as Fc1cccc(Cl)c1C1SCc2nc3ccccc3n21 (stereo not shown) [Compound 625483] shows Int.* (Ratio) (Interference) equal to 0.93

The molecule listed as CC1=NC(C(C)C)C(=O)O1 (stereo not shown) [Compound 635968] shows Int.* (Ratio) (Interference) equal to 0.97

====

So I've got a bunch of compounds here, and I need their EC50 values.
target: E. coli SSB-Cy5-dT15 complex (Escherichia coli, UniProt P0AGE0); construct: purchased Promega; assay: Escherichia coli SSB Cy5-dT15 binding assay (fluorescence polarization); details: read-out: SSB EC50
Sequence (P0AGE0 2-178, one chain of several): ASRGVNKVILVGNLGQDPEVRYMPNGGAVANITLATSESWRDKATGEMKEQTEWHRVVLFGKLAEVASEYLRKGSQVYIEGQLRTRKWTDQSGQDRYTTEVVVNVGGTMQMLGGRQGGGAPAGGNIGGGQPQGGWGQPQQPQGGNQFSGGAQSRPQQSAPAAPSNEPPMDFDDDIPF
State the answer as a number, implicitly in µM.

The compound listed as Cc1ccc2nc(-c3ccc4nc(-c5ccc(NC(=O)Nc6ccc(F)cc6)cc5)sc4c3)sc2c1S(=O)(=O)O.N shows EC50 equal to 11

The compound listed as Cc1ccc2nc(-c3ccc4nc(-c5ccc(NC(=O)c6ccc7nc(-c8ccc(NC(=O)OCC9c%10ccccc%10-c%10ccccc%109)cc8)sc7c6)cc5)sc4c3)sc2c1S(=O)(=O)O.N shows EC50 equal to 5

The compound listed as Cc1ccc(NC(=O)Nc2ccc(-c3nc4ccc(-c5nc6ccc(C)c(S(=O)(=O)O)c6s5)cc4s3)cc2)cc1 shows EC50 equal to 10

The compound listed as COc1ccc(NC(=O)Nc2ccc(-c3nc4ccc(-c5nc6ccc(C)c(S(=O)(=O)O)c6s5)cc4s3)cc2)cc1 shows EC50 equal to 4

The compound listed as Cc1ccc2nc(-c3ccc4nc(-c5ccc(NC(=O)c6cc(C(F)(F)F)cc(C(F)(F)F)c6)cc5)sc4c3)sc2c1S(=O)(=O)O shows EC50 equal to 36

The compound listed as Cc1ccc2nc(-c3ccc4nc(-c5ccc(NC(=O)Nc6ccc(Cl)cc6)cc5)sc4c3)sc2c1S(=O)(=O)O shows EC50 equal to 5

The compound listed as Cc1ccc2nc(-c3ccc4nc(-c5ccc(NC(=O)c6ccncc6)cc5)sc4c3)sc2c1S(=O)(=O)O shows EC50 equal to 55

The compound listed as Cc1ccc2nc(-c3ccc4nc(-c5ccc(NC(=O)c6cccc7ccccc67)cc5)sc4c3)sc2c1S(=O)(=O)O.N shows EC50 equal to 9

The compound listed as Cc1ccc2nc(-c3ccc4nc(-c5ccc(NC(=O)c6ccccc6C(F)(F)F)cc5)sc4c3)sc2c1S(=O)(=O)O shows EC50 equal to 13

The compound listed as Cc1ccc2nc(-c3ccc4nc(-c5ccc(NC(=O)c6ccc7ccccc7c6)cc5)sc4c3)sc2c1S(=O)(=O)O shows EC50 equal to 28

====

target: HCV NS3 helicase NS3h_1b(con1) (Hepatitis C virus genotype 1b, UniProt Q9WMX2); construct: truncated C-terminally His-tagged NS3 proteins lacking the N-terminal protease, called NS3h; His-tag (C); made in house; assay: MBHA screen of NCI mechanistic set library at 20 μM (percent inhibition, compound interference); format: biochemical; conditions: compounds at 20 μM, MBHA with DNA substrate; calculated from Equation 1
OBSERVATION TYPE: Inh. (%) (Inhibition)
State the answer as a number, implicitly in %.

The compound listed as NC(=O)c1cn(C2OC(CO)C(O)C2O)c2ncnc(N)c12 (stereo not shown) shows Inh. (%) (Inhibition) equal to 0.0

The compound listed as CO[C@@H]1[C@@H](OC(=O)c2ccc(C)[nH]2)[C@@H](O)[C@H](Oc2ccc3c(O)c(NC(=O)c4c[nH]c(C(=O)Nc5c(O)c6ccc(O[C@@H]7OC(C)(C)[C@H](OC)[C@@H](OC(=O)c8ccc(C)[nH]8)[C@H]7O)c(C)c6oc5=O)c4C)c(=O)oc3c2C)OC1(C)C shows Inh. (%) (Inhibition) equal to 0.0

The compound listed as C1CCNCC1.S=C(S)N1CCCCC1 shows Inh. (%) (Inhibition) equal to −1.6

The compound listed as CCCCCCCCCCCCCCCCCCOP(=O)([O-])OCC[N+](C)(C)C shows Inh. (%) (Inhibition) equal to 5.8

The compound listed as CC1CCCC(C(=O)/C(=C/c2cccc(Cl)c2)C(=O)C(=O)O)C1 (stereo not shown) shows Inh. (%) (Inhibition) equal to −8.2

The compound listed as BrC(/C=N/Nc1nnc(-c2ccccc2)c(-c2ccccc2)n1)C(Br)c1ccccc1 (stereo not shown) shows Inh. (%) (Inhibition) equal to −7.0

The compound listed as O=C(O)/C=C\C(=O)O.[N-]=[N+]=Nc1ccc2c(c1)Sc1ccccc1N2CCCCN1CCN(Cc2ccc(C(=O)c3ccccc3)cc2)CC1 shows Inh. (%) (Inhibition) equal to −1.7
